test: Plasma concentration and TK after 30-min IV infusion at 2 mg/kg; format: in vivo, Cynomolgus monkeys; settings: female, Cynomolgus, cynomolgus monkey, plasma, iv, 2 mg/kg
PROPERTY: AUC(0-inf)

COMPOUND: C[C@H](OP(=O)(N1CC1)N1CC1)c1ccc([N+](=O)[O-])c(Oc2cccc(C(=O)N(C)C)c2)c1 (single isomer, unassigned) [TH3424]
AUC(0-inf): 1200 ng·h/mL

Here is the next item to consider.
Query C[C@@H](OP(=O)(N1CC1)N1CC1)c1ccc([N+](=O)[O-])c(Oc2cccc(C(=O)N(C)C)c2)c1 (single isomer, unassigned) [TH3423] yields AUC(0-inf) of 766 ng·h/mL

* * *

experiment: Serum chemistry in monkeys, 2 mg/kg 30-min IV infusion; format: in vivo, Cynomolgus monkeys; conditions: male, Day 15 (pre-dose)
PROPERTY: BUN (mM)
// units = mM; emit number, no label

The value of BUN measured for the molecule C[C@H](OP(=O)(N1CC1)N1CC1)c1ccc([N+](=O)[O-])c(Oc2cccc(C(=O)N(C)C)c2)c1 (single isomer, unassigned) turned out to be 9.66

* * *

Reported AUC(0-t) values are given for each entry in this list.
test: Plasma concentration and TK after 30-min IV infusion at 2 mg/kg; type: in vivo, Cynomolgus monkeys; conditions: both sexes, Cynomolgus, cynomolgus monkey, plasma, iv, 2 mg/kg; Mean
The answer consists of two parts: a number and, after it, its unit.

COMPOUND: C[C@@H](OP(=O)(N1CC1)N1CC1)c1ccc([N+](=O)[O-])c(Oc2cccc(C(=O)N(C)C)c2)c1 (single isomer, unassigned)
PROPERTY: AUC(0-t)
EXPERIMENTAL_VALUE: 766 ng·h/mL

C[C@H](OP(=O)(N1CC1)N1CC1)c1ccc([N+](=O)[O-])c(Oc2cccc(C(=O)N(C)C)c2)c1 (single isomer, unassigned) yielded AUC(0-t) of 1460 ng·h/mL

* * *

experiment: Serum chemistry in monkeys, 2 mg/kg 30-min IV infusion; assay type: in vivo, Cynomolgus monkeys; details: female, Day 15 (pre-dose)
PROPERTY: BUN

COMPOUND: C[C@H](OP(=O)(N1CC1)N1CC1)c1ccc([N+](=O)[O-])c(Oc2cccc(C(=O)N(C)C)c2)c1 (single isomer, unassigned) [TH3424]
BUN: 3.87 mM

Shift focus to the following entry.
Documented BUN of C[C@@H](OP(=O)(N1CC1)N1CC1)c1ccc([N+](=O)[O-])c(Oc2cccc(C(=O)N(C)C)c2)c1 (single isomer, unassigned) [TH3423] : 5.96 mM

* * *

test: Plasma concentration and TK after 30-min IV infusion at 2 mg/kg; format: in vivo, Cynomolgus monkeys; conditions: both sexes, Cynomolgus, cynomolgus monkey, plasma, iv, 2 mg/kg; Mean
# key: entry, value: AUC(0-inf)
Your answer should be a plain number; it is taken to be in ng·h/mL.

COMPOUND: C[C@@H](OP(=O)(N1CC1)N1CC1)c1ccc([N+](=O)[O-])c(Oc2cccc(C(=O)N(C)C)c2)c1 (single isomer, unassigned) [TH3423]
PROPERTY: AUC(0-inf)
EXPERIMENTAL_VALUE: 770

Here's the next entry for you.
For record C[C@H](OP(=O)(N1CC1)N1CC1)c1ccc([N+](=O)[O-])c(Oc2cccc(C(=O)N(C)C)c2)c1 (single isomer, unassigned) [TH3424] the listed AUC(0-inf) is 1460

* * *

Each entry below carries its recorded BUN.
experiment: Serum chemistry in monkeys, 2 mg/kg 30-min IV infusion; format: in vivo, Cynomolgus monkeys; conditions: female, Day 1 (pre-dose)
Give a bare numeral; the unit mM is implied.

MOLECULE: C[C@@H](OP(=O)(N1CC1)N1CC1)c1ccc([N+](=O)[O-])c(Oc2cccc(C(=O)N(C)C)c2)c1 (single isomer, unassigned) [TH3423]
EXPERIMENTAL_VALUE: 4.06

Here is another molecule to look at.
Summary for this molecule, C[C@H](OP(=O)(N1CC1)N1CC1)c1ccc([N+](=O)[O-])c(Oc2cccc(C(=O)N(C)C)c2)c1 (single isomer, unassigned) [TH3424] : BUN is 3.43

* * *

experiment: Plasma concentration and TK after 30-min IV infusion at 2 mg/kg; format: in vivo, Cynomolgus monkeys; details: male, Cynomolgus, cynomolgus monkey, plasma, iv, 2 mg/kg
PROPERTY: AUC(0-t)
I'd appreciate it if you wrote the number followed by its unit.

COMPOUND: C[C@H](OP(=O)(N1CC1)N1CC1)c1ccc([N+](=O)[O-])c(Oc2cccc(C(=O)N(C)C)c2)c1 (single isomer, unassigned)
AUC(0-t): 1720 ng·h/mL

Memo: C[C@@H](OP(=O)(N1CC1)N1CC1)c1ccc([N+](=O)[O-])c(Oc2cccc(C(=O)N(C)C)c2)c1 (single isomer, unassigned) , reported AUC(0-t): 773 ng·h/mL

* * *

assay: Plasma concentration and TK after 30-min IV infusion at 2 mg/kg; type: in vivo, Cynomolgus monkeys; conditions: male, Cynomolgus, cynomolgus monkey, plasma, iv, 2 mg/kg
Catalogue of AUC(0-inf) readings, one per entry.
Numeric only. Scale: ng·h/mL

In plain terms, C[C@H](OP(=O)(N1CC1)N1CC1)c1ccc([N+](=O)[O-])c(Oc2cccc(C(=O)N(C)C)c2)c1 (single isomer, unassigned) has a documented AUC(0-inf) of 1730

C[C@@H](OP(=O)(N1CC1)N1CC1)c1ccc([N+](=O)[O-])c(Oc2cccc(C(=O)N(C)C)c2)c1 (single isomer, unassigned) yielded AUC(0-inf) of 774

* * *

BUN values, listed per item
assay: Serum chemistry in monkeys, 2 mg/kg 30-min IV infusion; type: in vivo, Cynomolgus monkeys; conditions: male, Day 8 (pre-dose)
Unit mM implied. Number only.

COMPOUND: C[C@H](OP(=O)(N1CC1)N1CC1)c1ccc([N+](=O)[O-])c(Oc2cccc(C(=O)N(C)C)c2)c1 (single isomer, unassigned) [TH3424]
BUN, mM: 4.8

Per the records, this compound ( C[C@@H](OP(=O)(N1CC1)N1CC1)c1ccc([N+](=O)[O-])c(Oc2cccc(C(=O)N(C)C)c2)c1 (single isomer, unassigned) [TH3423] ) has BUN equal to 26.8
